B1: mRNA-splicing (parent)
chain: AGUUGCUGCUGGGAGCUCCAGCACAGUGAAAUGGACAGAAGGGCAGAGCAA

Variants of: B1
Test: exon inclusion enrichment index; higher = more inclusion; WT1 exon 5 minigene, HEK293
# exon inclusion enrichment index binned as LOW: < 0.07; MEDIUM: ≥ 0.07 and < 0.4; HIGH: ≥ 0.4

>>> assigned_class("G5A C6A U7G G8A U10C")
"HIGH"
>>> assigned_class("G5A C6U U7A G8U C9A A47C")
"MEDIUM"
>>> assigned_class("G5A C6U U7A G8U C9A G42C G43U")
"MEDIUM"
>>> assigned_class("G5A C6U U7A G8U C9A C36A")
"LOW"
>>> assigned_class("C6A U7A C9A U10A C24G A25U")
"HIGH"
>>> assigned_class("G5A C6G U7G C9A G33C G34A")
"LOW"
>>> assigned_class("G5U G8U C9U G41A")
"MEDIUM"
>>> assigned_class("G5A C6U U7A G8U C9A A14C")
"LOW"
>>> assigned_class("G5A U7C G8A U10C C18A C19G")
"MEDIUM"
>>> assigned_class("C6A U7C C9A U10C A14G G15U")
"HIGH"
>>> assigned_class("G5A U7C G8A C9A U10A")
"MEDIUM"
>>> assigned_class("G5U G8U C9U G12C G13C")
"LOW"
>>> assigned_class("C6A U7A C9A U10A A35C C36G")
"HIGH"
>>> assigned_class("G5A C6U U7A G8U C9A G26A U27A")
"MEDIUM"
>>> assigned_class("U4C G5U C6A U7C C9A U10C")
"HIGH"
>>> assigned_class("G5A C6U U7A G8U C9A G38U A39G")
"LOW"
>>> assigned_class("C6A G8U C9A U10A")
"LOW"
>>> assigned_class("G5C C6A U7C G8A U10A A23U C24U")
"LOW"
>>> assigned_class("G5U G8U C9U G41C G42U")
"HIGH"
>>> assigned_class("C6A U7C C9A U10C G26C U27G")
"HIGH"
